# measured on: Nuclear receptor subfamily 5 group A member 2 (Homo sapiens)
# experiment description: LRH-1 (NR5A2) inverse agonists, primary screen, cell-based, luminescence, HEK293T, StAR-luciferase reporter (AID 602396);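 note: 0% = DMSO wells and 100% = reporter-only cells lacking LRH-1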
# measurement conditions: LRH-1 transfected, 24 h, at 3.6 µM, hits give high values
The whole screen tested about 360,000 compounds, of which about 460 (0.13%) were called active. The entries come from a sample that favours actives as a whole.
// reported inhibition for each item listed

# molecule, units label, inhibition
records = [
    ("CCCCCCCCCCCCn1ccc(=N)cc1", "%", 84.1),
    ("CC1CCCN1CCC(C(N)=O)(c1ccccc1)c1ccccc1 (stereo not given)", "%", -19.5),
    ("CCC(C)(O)C(=O)OC1C(=O)OC2CC3C(C)=CC(=O)C(O)C3(C)C3C4(O)OCC23C1C(C)C4O (stereo not given)", "%", 98.4),
    ("CCOC(=O)C(O)(c1ccc(NC(=O)c2ccco2)c(OC)c1)C(F)(F)F (stereo not given)", "%", 15),
    ("CCNc1nc2[nH]c(=O)c3c(c2s1)OC(N)=C(C#N)C3c1cccs1 (stereo not given)", "%", -2.41),
    ("CCOP(=S)(OCC)SCOC(=O)NCC(=O)OC", "%", -13.1),
    ("CN(C)c1ccc(/C=C2\\CC3C4CC=C5CC(O)CCC5(C)C4CCC3(C)C2=O)cc1 (stereo not given)", "%", 10.7),
    ("Cc1ccc(-c2nc3ccccc3c(=O)n2-c2ccc(Br)cn2)cc1", "%", -1.48),
    ("COc1ccc(C(=O)CC2C(=O)N(C)C(=O)N(C)C2=O)cc1", "%", -5.13),
    ("C[C@]12CC[C@H](O)C[C@H]1CC[C@@H]1C2CC[C@]2(C)[C@@H](C3=CC(=O)OC3)[C@@H](O)C[C@]12O (stereo not given in full)", "%", 88.6),
]
